This collection of values is drawn from PubChem BioAssay (NCATS).

Assay: qHTS profiling for inhibitors of Plasmodium falciparum proliferation (AID 504749);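 note: 0% = DMSO vehicle and full inhibition = artemisinin control; nearly all actives have a fitted effect of over 60% in size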
Settings: P. falciparum in erythrocytes, SYBR Green DNA, 72 h; at 28.7 µM (top of the series); parasite line B
Results filed as inconclusive are left out. The source made the active and inactive calls. Calls come from the whole dose curve; as a rule, active = well fitted inhibition curve with a large enough effect; inconclusive = small, poorly fitted or top-dose-only effect; inactive = flat fitted curve, though single readings scatter.
Catalogue of molecules with associated activity, negative = inhibition

Example molecules with recorded activity, negative = inhibition:
>>> readoutvalue("O=C(O)CCNC(=O)c1ccc(N=Nc2ccc(O)c(C(=O)O)c2)cc1")
"9.54% (inactive)"
>>> readoutvalue("CC1(C)CCC(C)(C)c2cc(NC(=O)c3ccc(C(=O)O)cc3)ccc21")
"-5.09% (inactive)"
>>> readoutvalue("Cc1ncc([N+](=O)[O-])n1CC(C)O (stereo unspecified)")
"17% (inactive)"
>>> readoutvalue("CS(=O)(=O)OCCCCOS(C)(=O)=O")
"-1.27% (inactive)"
>>> readoutvalue("COc1cc2c(cc1OC)C1CC(=O)C(CC(C)C)CN1CC2 (stereo unspecified)")
"0.311% (inactive)"

Quick note, activity, negative = inhibition for O=C(O)c1cn(-c2ccc(F)cc2)c2cc(N3CCNCC3)c(F)cc2c1=O landed at -17.6% (inactive)

* * *

Experiment: High-throughput drug toxicity screening in the BPDCN cell line Cal-1 (AID 1224825);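 note: cells exposed to compounds for 48 h; 100% = DMSO and 0% = bortezomib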
Conditions: Cal-1 BPDCN cell viability, qHTS; at 45.8 µM (top of the series) unless noted
Simple rule here: viability (% of control) less than 90% is condition met, otherwise condition not met.

# input # TODO verify viability (% of control) < 90% strictly for this compound: CC(=O)Nc1ccc(O)cc1
# output condition met

# input Record CC(=O)N1CCN(c2ccc(OC[C@H]3CO[C@](Cn4ccnc4)(c4ccc(Cl)cc4Cl)O3)cc2)CC1 : is its viability (% of control) strictly below 90%?
# output condition met

# input Please check: viability (% of control) for CCOC(=O)C1=C(O)C(=O)N(Cc2ccccc2)C1 , strictly under 90% or not?
# output condition not met

# input hey, is viability (% of control) for Clc1ccc(C(Cn2ccnc2)OCc2c(Cl)cccc2Cl)c(Cl)c1 (configuration not stated) lower than 90% or not?
# output condition met

# input Please let me know if O=C1CCc2ccc(OCCCCN3CCN(c4cccc(Cl)c4Cl)CC3)cc2N1 shows viability (% of control) below 90%.
# output condition not met

* * *

Test: qHTS of pediatric cancer cell lines to identify multiple opportunities for drug repurposing: Confirmatory screen for Rh30 cells (AID 1347126); note: nearly all actives have a fitted effect of over 55% in size
Conditions: Rh30 rhabdomyosarcoma cell viability; series mostly up to 45.9 µM
Inconclusive results are not listed. The source made the active and inactive calls. Calls follow the shape of the dose curve; as a rule, active = well fitted cell-killing curve with a large enough effect; inconclusive = small, poorly fitted or top-dose-only effect, or effect the other way; inactive = no such curve, though single readings can be large or run the other way.
Pick one: active, inactive

Solved entries (count: 5):
>>> assignedcategory("CC1(C)C(=O)N(CCN2CCC(C(=O)c3ccc(F)cc3)CC2)c2ccccc21")
"inactive"
>>> assignedcategory("CCN(CC)C(=S)SSC(=S)N(CC)CC")
"inactive"
>>> assignedcategory("Cc1nc(Nc2ncc(C(=O)Nc3c(C)cccc3Cl)s2)cc(N2CCN(CCO)CC2)n1")
"active"
>>> assignedcategory("Oc1ccc(-c2nc(-c3ccc(F)cc3)c(-c3ccncc3)[nH]2)cc1")
"active"
>>> assignedcategory("Cc1cc(C2CCCCC2)n(O)c(=O)c1")
"active"

# input For CCOc1cc(CC(=O)N[C@@H](CC(C)C)c2ccccc2N2CCCCC2)ccc1C(=O)O , what call appears in the results of this test?
# output inactive

# input Called result for CCN(CCO)CCCC(C)Nc1ccnc2cc(Cl)ccc12 (configuration not stated)
# output inactive
